- target_under_test: LHRH receptors (Rattus norvegicus)
- Construct: Pituitary membranes containing LHRH receptors are prepared in batches from quick-frozen rat pituitaries; tissue Hilltop Labs; host or cells: rat pituitary membranes
- Sequence (P30969 whole entry): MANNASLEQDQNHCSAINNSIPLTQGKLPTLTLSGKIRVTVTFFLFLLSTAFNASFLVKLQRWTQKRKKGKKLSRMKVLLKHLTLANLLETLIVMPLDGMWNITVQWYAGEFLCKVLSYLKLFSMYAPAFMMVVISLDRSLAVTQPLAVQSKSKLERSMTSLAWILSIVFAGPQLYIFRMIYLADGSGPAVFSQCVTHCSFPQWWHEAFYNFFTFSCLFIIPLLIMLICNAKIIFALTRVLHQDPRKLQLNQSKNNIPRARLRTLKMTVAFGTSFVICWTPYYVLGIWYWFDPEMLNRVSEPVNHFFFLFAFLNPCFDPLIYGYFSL
- protocol: Receptor Binding (radioligand receptor binding assay)
- run_parameters: table 4; rat pituitary membranes, radioligand 50 pM, 2 hours at 4° C.; read-out: Receptor Binding pkI (converted)
Numbered stars: 1 amine (or outer) side, 2 acyl side, 3 side chain; on linkers, the order of the positions; unused ones are H or OH. Square brackets hold non-standard residues; d marks the D form. Peptide text beside a SMILES is read from it. * marks the point of attachment. Propanoyl(3-(3,4-F2Ph)) = O=C(CCc1ccc(F)c(F)c1)*; Propanoyl(3-(4-F-phenyl)) = O=C(CCc1ccc(F)cc1)*; Propanoyl(3-(4-Cl-Ph)) = O=C(CCc1ccc(Cl)cc1)*; 1Nal = N[C@@H](Cc1cccc2ccccc12)C(=O)O; d1Nal = N[C@H](Cc1cccc2ccccc12)C(=O)O; Lys(iPr) = CC(C)NCCCC[C@H](N)C(=O)O; NMeY = CN[C@@H](Cc1ccc(O)cc1)C(=O)O; d3Pal = N[C@H](Cc1cccnc1)C(=O)O; Nicotinoyl = O=C(c1cccnc1)*; X9 = O=C(CCc1ccc(Br)cc1)*; Morpholide = C1CN(*)CCO1; CO = O=C([*:1])[*:2]
This listing pairs compounds with measured Ki.
Report as a plain number; the unit nM is understood.

See these solved cases before continuing.
| compound | target_under_test | Ki (nM) |
| --- | --- | --- |
| CCNC(=O)[C@@H]1CCCN1C(=O)[C@H](CCCNC(=N)N)NC(=O)[C@H](CC(C)C)NC(=O)[C@@H](Cc1c[nH]c2ccccc12)NC(=O)[C@H](Cc1ccc(O)cc1)N(C)C(=O)[C@H](CO)NC(=O)[C@H](Cc1cccc2ccccc12)NC(=O)CCc1ccc(F)cc1 [Compound 158] ({Propanoyl(3-(4-F-phenyl))}-[1Nal]S[NMeY][dW]LRP-NHEt) | LHRH receptors (Rattus norvegicus) | 0.0174 |
| CC(C)C[C@H](NC(=O)[C@@H](CCCCNC(=O)c1cccnc1)NC(=O)[C@H](Cc1ccc(O)cc1)N(C)C(=O)[C@H](CO)NC(=O)[C@@H](Cc1cccc2ccccc12)NC(=O)CCc1ccc(F)cc1)C(=O)N[C@@H](CCCCNC(C)C)C(=O)N1CCC[C@H]1C(=O)N[C@H](C)C(N)=O [Compound 197] ({Propanoyl(3-(4-F-phenyl))}-[d1Nal]S[NMeY][dK](Nicotinoyl)L[Lys(iPr)]P[dA]-NH2) | LHRH receptors (Rattus norvegicus) | 0.0112 |
| CCNC(=O)[C@@H]1CCCN1C(=O)[C@H](CCCNC(=N)N)NC(=O)[C@H](CC(C)C)NC(=O)[C@@H](Cc1c[nH]c2ccccc12)NC(=O)[C@H](Cc1ccc(O)cc1)N(C)C(=O)[C@H](CO)NC(=O)[C@@H](Cc1cccc2ccccc12)NC(=O)CCc1ccc(Br)cc1 [Compound 159] (X9-[d1Nal]S[NMeY][dW]LRP-NHEt) | LHRH receptors (Rattus norvegicus) | 0.0562 |

Observed Ki, LHRH receptors (Rattus norvegicus), CC(C)C[C@H](NC(=O)[C@@H](CCCCNC(=O)c1cccnc1)NC(=O)[C@H](Cc1ccc(O)cc1)N(C)C(=O)[C@H](CO)NC(=O)[C@@H](Cc1cccnc1)NC(=O)CCc1ccc(Cl)cc1)C(=O)N[C@@H](CCCCNC(C)C)C(=O)N1CCC[C@H]1C(=O)N[C@H](C)C(N)=O [Compound 194] ({Propanoyl(3-(4-Cl-Ph))}-[d3Pal]S[NMeY][dK](Nicotinoyl)L[Lys(iPr)]P[dA]-NH2) : 0.191

Observed Ki, LHRH receptors (Rattus norvegicus), CC(C)C[C@H](NC(=O)[C@@H](Cc1cccnc1)NC(=O)[C@H](Cc1ccc(O)cc1)N(C)C(=O)[C@H](CO)NC(=O)[C@@H](Cc1cccc2ccccc12)NC(=O)CCc1ccc(F)cc1)C(=O)N[C@@H](CCCCNC(C)C)C(=O)N1CCC[C@H]1C(=O)N[C@H](C)C(N)=O [Compound 208] ({Propanoyl(3-(4-F-phenyl))}-[d1Nal]S[NMeY][d3Pal]L[Lys(iPr)]P[dA]-NH2) : 0.0126

Observed Ki, LHRH receptors (Rattus norvegicus), CCNC(=O)[C@@H]1CCCN1C(=O)[C@H](CCCN=C(N)N)NC(=O)[C@H](CC(C)C)NC(=O)[C@@H](Cc1c[nH]c2ccccc12)NC(=O)[C@H](Cc1ccc(O)cc1)N(C)C(=O)[C@H](CO)NC(=O)[C@@H](Cc1c[nH]c2ccccc12)NC(=O)CCc1ccc(Cl)cc1 [Compound 156] ({Propanoyl(3-(4-Cl-Ph))}-[dW]S[NMeY][dW]LRP-NHEt) : 0.0692

Observed Ki, LHRH receptors (Rattus norvegicus), CCNC(=O)[C@@H]1CCCN1C(=O)[C@H](CCCN=C(N)N)NC(=O)[C@H](CC(C)C)NC(=O)[C@@H](Cc1ccc(O)cc1)NC(=O)[C@H](Cc1ccc(O)cc1)NC(=O)[C@H](CO)NC(=O)[C@@H](Cc1c[nH]c2ccccc12)NC(=O)CCc1ccc(F)cc1 [Compound 150] ({Propanoyl(3-(4-F-phenyl))}-[dW]SY[dY]LRP-NHEt) : 0.0102

Observed Ki, LHRH receptors (Rattus norvegicus), CCNC(=O)[C@@H]1CCCN1C(=O)[C@H](CCCN=C(N)N)NC(=O)[C@H](CC(C)C)NC(=O)[C@@H](Cc1c[nH]c2ccccc12)NC(=O)[C@H](Cc1ccc(O)cc1)NC(=O)[C@H](CO)NC(=O)[C@@H](Cc1c[nH]c2ccccc12)NC(=O)CCc1ccc(F)c(F)c1 [Compound 151] ({Propanoyl(3-(3,4-F2Ph))}-[dW]SY[dW]LRP-NHEt) : 0.0282

Observed Ki, LHRH receptors (Rattus norvegicus), CCNC(=O)[C@@H]1CCCN1C(=O)[C@H](CCCN=C(N)N)NC(=O)[C@H](CC(C)C)NC(=O)[C@@H](CCCCNC(=O)c1cccnc1)NC(=O)[C@H](Cc1ccc(O)cc1)N(C)C(=O)[C@H](CO)NC(=O)[C@@H](Cc1c[nH]c2ccccc12)NC(=O)CCc1ccc(Cl)cc1 [Compound 154] ({Propanoyl(3-(4-Cl-Ph))}-[dW]S[NMeY][dK](Nicotinoyl)LRP-NHEt) : 0.0316

Observed Ki, LHRH receptors (Rattus norvegicus), CC(C)C[C@H](NC(=O)[C@@H](Cc1c[nH]c2ccccc12)NC(=O)[C@H](Cc1ccc(O)cc1)N(C)C(=O)[C@H](CO)NC(=O)[C@@H](Cc1c[nH]c2ccccc12)NC(=O)[C@@H](Cc1cccc2ccccc12)NC(=O)N1CCOCC1)C(=O)N[C@@H](CCCNC(=N)N)C(=O)N1CCC[C@H]1C(=O)N[C@H](C)C(N)=O [Compound 220] ({Morpholide-CO}-[d1Nal][dW]S[NMeY][dW]LRP[dA]-NH2) : 0.17

The reported numbers originate from patent US5140009A.
